biological target: AAK1 (full length human) in HEK293F cells (Homo sapiens); assay: HEK293F Cell-Based Assay (phospho-mu2 Western blot); conditions: 3 hours, IC50 ranges
Recorded IC50 by entry

| COMPOUND | IC50 |
| --- | --- |
| CC1Oc2cc(OCC(N)CCC(F)(F)F)ccc2-c2ccncc21 (centres unmarked) | 10 to 100 nM |
| CC(=O)Nc1cc2c(cn1)COc1c-2ccc(OCC(C)(N)CC(C)C)c1OC(F)F (racemic) | < 1 nM |
| COC(=O)Nc1cc2c(cn1)COc1c-2ccc(OCC(C)(N)CC(C)C)c1OC(F)F (racemic) | 1 to 10 nM |
| COC(=O)Nc1cc2c(cn1)COc1cc(OCC(C)(N)CC(C)C)ccc1-2 (centres unmarked) [Example 67] | 10 to 100 nM |
| CC(=O)Nc1cc2c(cn1)COc1c-2ccc(OC[C@@H](N)CC(C)C)c1Cl | < 1 nM |
| CC1Oc2cc(OCC(N)CC(C)(C)F)ccc2-c2ccncc21 (centres unmarked) | 10 to 100 nM |
| COC(=O)Nc1cc2c(cn1)COc1cc(OCC(C)(N)CC(C)C)ccc1-2 (centres unmarked) [Example 70] | 1 to 10 nM |
| CCOC(=O)Nc1cc2c(cn1)COc1cc(OC[C@@H](N)CC(C)C)ccc1-2 | 1 to 10 nM |

----------
target: GST-Xa-hAAK1 (Homo sapiens, UniProt Q2M2I8); construct: made in house; assay: AAK1 Kinase Assay; type: biochemical; conditions: ATP 22 μM; numeric values
Sequence (Q2M2I8 whole entry): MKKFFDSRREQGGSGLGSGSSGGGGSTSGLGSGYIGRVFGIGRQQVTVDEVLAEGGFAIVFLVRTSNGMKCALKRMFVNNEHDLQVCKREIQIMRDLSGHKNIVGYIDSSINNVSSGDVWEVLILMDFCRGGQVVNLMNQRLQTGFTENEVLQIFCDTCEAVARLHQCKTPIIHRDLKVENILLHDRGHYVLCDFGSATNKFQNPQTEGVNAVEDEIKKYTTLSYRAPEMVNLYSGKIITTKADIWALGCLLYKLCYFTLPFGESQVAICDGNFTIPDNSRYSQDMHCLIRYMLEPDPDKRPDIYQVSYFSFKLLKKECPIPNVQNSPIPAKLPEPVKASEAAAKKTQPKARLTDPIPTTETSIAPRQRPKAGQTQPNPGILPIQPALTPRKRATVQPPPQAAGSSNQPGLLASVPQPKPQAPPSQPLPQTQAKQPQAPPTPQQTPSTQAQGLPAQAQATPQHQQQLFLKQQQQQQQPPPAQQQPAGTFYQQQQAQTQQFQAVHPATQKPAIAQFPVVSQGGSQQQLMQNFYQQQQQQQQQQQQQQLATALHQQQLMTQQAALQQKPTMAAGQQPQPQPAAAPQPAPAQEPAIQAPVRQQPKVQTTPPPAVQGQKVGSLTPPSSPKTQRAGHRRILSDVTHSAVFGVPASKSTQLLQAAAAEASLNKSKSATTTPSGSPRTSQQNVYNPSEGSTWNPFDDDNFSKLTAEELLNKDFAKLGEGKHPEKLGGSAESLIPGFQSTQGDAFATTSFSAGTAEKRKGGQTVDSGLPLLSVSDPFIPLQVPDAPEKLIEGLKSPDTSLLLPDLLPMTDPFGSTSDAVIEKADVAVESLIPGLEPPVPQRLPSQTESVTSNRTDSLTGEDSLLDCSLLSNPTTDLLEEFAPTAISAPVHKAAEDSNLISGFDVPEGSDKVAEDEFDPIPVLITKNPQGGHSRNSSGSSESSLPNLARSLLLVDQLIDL
Assign labels as follows, please: satisfied for IC50 below 5 nM; not satisfied for IC50 equal to or exceeding 5 nM.

| COMPOUND | CLASS NAME |
| --- | --- |
| Cc1cc2c(cn1)c(=O)oc1cc(OC[C@@](C)(N)CC(C)C)ccc12 | not satisfied |
| COC(=O)Nc1cc2c(cn1)COc1cc(OC[C@@](C)(N)CC(C)C)c(F)cc1-2 | satisfied |
| CCOC(=O)Nc1cc2c(cn1)COc1c-2ccc(OC[C@@](C)(N)CC(C)C)c1Cl | satisfied |
| CC(=O)Nc1cc2c(cn1)COc1cc(OC[C@@](C)(N)CC(C)C)ccc1-2 | satisfied |
| CC(C)C[C@H](N)COc1ccc2c(c1)OC(C1CC1)c1c-2ccnc1N (some centres unmarked) | not satisfied |
| CC(=O)Nc1nccc2c1C(C1CC1)Oc1cc(OC[C@@H](N)CC(C)C)ccc1-2 (some centres unmarked) | not satisfied |
| CC(C)C[C@H](N)COc1ccc2c(c1)OCc1cnc(NC(=O)OC(C)C)cc1-2 | not satisfied |
| COC(=O)Nc1cc2c(cn1)COc1c-2ccc(OC[C@@](C)(N)CC(C)C)c1OC | satisfied |
| [2H]C([2H])(Oc1ccc2c(c1)OCc1cnc(NC(=O)OC)cc1-2)C(C)(N)CC(C)C (racemic) | satisfied |
| CNc1nccc2c1COc1cc(OC[C@@H](N)CC(C)C)ccc1-2 | not satisfied |
| CC1Oc2cc(OC[C@@H](N)CC3CC3)ccc2-c2ccncc21 (some centres unmarked) | not satisfied |

----------
target: GST-Xa-hAAK1 (Homo sapiens, UniProt Q2M2I8); construct: made in house; assay: AAK1 Kinase Assay; assay type: biochemical; details: ATP 22 μM; IC50 ranges
pIC50: −log10 of the molar value.

| COMPOUND | SYSTEM UNDER TEST | pIC50 |
| --- | --- | --- |
| CC(C)C[C@@H](N)COc1ccc2c(c1)OC(C1CC1)c1cnccc1-2 (stereo partly shown) [Example 9] | GST-Xa-hAAK1 (Homo sapiens, UniProt Q2M2I8) | 5.92 to 7.00 |
| CC(=O)Nc1cc2c(cn1)COc1c-2ccc(OCC(C)(N)CC(C)C)c1OC(F)F (racemic) [Example 65] | GST-Xa-hAAK1 (Homo sapiens, UniProt Q2M2I8) | > 9.00 |
| CC(C)C[C@H](N)COc1ccc2c(c1)OC(C(F)(F)F)c1cnccc1-2 (single isomer, unassigned; diastereomer 2) [Example 53] | GST-Xa-hAAK1 (Homo sapiens, UniProt Q2M2I8) | 7.00 to 8.00 |
| CC(C)C[C@H](N)COc1ccc2c(c1)OC(C(C)C)c1cnccc1-2 (stereo partly shown) [Example 55] | GST-Xa-hAAK1 (Homo sapiens, UniProt Q2M2I8) | 7.00 to 8.00 |
| CC(C)C[C@H](N)COc1ccc2c(c1)OC(C1CC1)c1cnccc1-2 (single isomer, unassigned) [Example 8a] | GST-Xa-hAAK1 (Homo sapiens, UniProt Q2M2I8) | 5.92 to 7.00 |
| CC1Oc2cc(OCC(N)CCC(F)(F)F)ccc2-c2ccncc21 (stereo not shown) [Example 57] | GST-Xa-hAAK1 (Homo sapiens, UniProt Q2M2I8) | 8.00 to 9.00 |
| CC(C)C[C@H](N)COc1ccc2c(c1)OCc1cnc(NC(=O)c3cc(F)cc(F)c3)cc1-2 [Example 72] | GST-Xa-hAAK1 (Homo sapiens, UniProt Q2M2I8) | 5.92 to 7.00 |
| CC(=O)Nc1cc2c(cn1)COc1c-2ccc(OC[C@@](C)(N)CC(C)C)c1OC(F)F [Example 87] | GST-Xa-hAAK1 (Homo sapiens, UniProt Q2M2I8) | > 9.00 |
| COc1c(OC[C@@](C)(N)CC(C)C)ccc2c1OCc1cnc(NC(C)=O)cc1-2 [Example 85] | GST-Xa-hAAK1 (Homo sapiens, UniProt Q2M2I8) | > 9.00 |
| CCOC(=O)Nc1cc2c(cn1)COc1cc(OC[C@@](C)(N)CC(C)C)ccc1-2 [Example 81] | GST-Xa-hAAK1 (Homo sapiens, UniProt Q2M2I8) | > 9.00 |
| CC(C)C[C@](C)(N)COc1ccc2c(c1)OCc1cnc(N)cc1-2 [Example 90] | GST-Xa-hAAK1 (Homo sapiens, UniProt Q2M2I8) | 8.00 to 9.00 |
| CC1Oc2cc(OCC(N)CC(C)(C)F)ccc2-c2ccncc21 (stereo not shown) [Example 26] | GST-Xa-hAAK1 (Homo sapiens, UniProt Q2M2I8) | 8.00 to 9.00 |
| [2H]C([2H])(Oc1ccc2c(c1C#N)OCc1cnc(NC(=O)OC)cc1-2)C(C)(N)CC(C)C (racemic) [Example 94] | GST-Xa-hAAK1 (Homo sapiens, UniProt Q2M2I8) | > 9.00 |
| COC(=O)Nc1cc2c(cn1)COc1c-2ccc(OC[C@@](C)(N)CC(C)C)c1C#N [Example 80] | GST-Xa-hAAK1 (Homo sapiens, UniProt Q2M2I8) | > 9.00 |
| COC(=O)Nc1cc2c(cn1)COc1c-2ccc(OCC(C)(N)CC(C)C)c1OC (racemic) [Example 69] | GST-Xa-hAAK1 (Homo sapiens, UniProt Q2M2I8) | > 9.00 |
| CC(C)C[C@H](N)COc1cc2oc(=O)c3cnccc3c2cc1Br [Example 25] | GST-Xa-hAAK1 (Homo sapiens, UniProt Q2M2I8) | 8.00 to 9.00 |

----------
Recorded pIC50 by entry
biological target: AAK1 (full length human) in HEK293F cells (Homo sapiens); test: HEK293F Cell-Based Assay (phospho-mu2 Western blot); details: 3 hours, IC50 ranges
pIC50: −log10 of the molar value.
MEASUREMENT TYPE: pIC50

| MOLECULE | SYSTEM UNDER TEST | RESULT |
| --- | --- | --- |
| CCC(=O)Nc1cc2c(cn1)COc1cc(OC[C@@H](N)CC(C)C)ccc1-2 | AAK1 (full length human) in HEK293F cells (Homo sapiens) | 7.00 to 8.00 |
| COc1c(OCC(C)(N)CC(C)C)ccc2c1OCc1cnc(NC(C)=O)cc1-2 (racemic) | AAK1 (full length human) in HEK293F cells (Homo sapiens) | 8.00 to 9.00 |
| COC(=O)Nc1cc2c(cn1)COc1c-2ccc(OC[C@@H](N)CC(C)C)c1Cl | AAK1 (full length human) in HEK293F cells (Homo sapiens) | > 9.00 |
| CC(C)C[C@H](N)COc1cc2c(cc1Cl)-c1ccncc1[C@@H](C(F)(F)F)O2 (single isomer, unassigned) [Example 27b] | AAK1 (full length human) in HEK293F cells (Homo sapiens) | 8.00 to 9.00 |
| CCOC(=O)Nc1cc2c(cn1)COc1cc(OC[C@@](C)(N)CC(C)C)ccc1-2 | AAK1 (full length human) in HEK293F cells (Homo sapiens) | > 9.00 |
| COC(=O)Nc1ncc2c(c1Cl)-c1cc(Cl)c(OC[C@@](C)(N)CC(C)C)cc1OC2 | AAK1 (full length human) in HEK293F cells (Homo sapiens) | 8.00 to 9.00 |

----------
molecular target: GST-Xa-hAAK1 (Homo sapiens); construct: made in house; assay: AAK1 Kinase Assay; assay type: biochemical; conditions: ATP 22 μM; IC50 ranges
Recorded IC50 by entry
MEASUREMENT TYPE: IC50

| COMPOUND | RESULT |
| --- | --- |
| CC(C)C[C@H](N)COc1ccc2c(c1)OC(C(C)C)c1cnccc1-2 (stereo partly shown) [Example 51] | 0.01 to 0.1 µM |
| CC(=O)Nc1cc2c(cn1)COc1cc(OC[C@@H](N)CC(C)C)cc(F)c1-2 | 0.001 to 0.01 µM |
| CC(=O)Nc1cc2c(cn1)COc1c-2ccc(OC[C@@H](N)CC(C)C)c1Cl | < 0.001 µM |
| CC[C@@H](N)COc1ccc2c(c1)OCc1cnccc1-2 | 0.1 to 1.2 µM |
| CC(=O)Nc1cc2c(cn1)COc1cc(OC[C@H](CC(C)C)NS(C)(=O)=O)ccc1-2 | 0.01 to 0.1 µM |
| CC(C)C[C@H](N)COc1ccc2c(c1)OC(C(F)(F)F)c1cnccc1-2 (single isomer, unassigned; diastereomer 1) [Example 52] | 0.01 to 0.1 µM |
| [2H]C([2H])(Oc1ccc2c(c1)OCc1cnc(NC(C)=O)cc1-2)C(C)(N)CC(C)C (racemic) | 0.001 to 0.01 µM |
| CCNc1cc2c(cn1)COc1cc(OC[C@@H](N)CC(C)C)ccc1-2 | 0.01 to 0.1 µM |
| CCOC(=O)Nc1cc2c(cn1)COc1cc(OC[C@@H](N)CC(C)C)ccc1-2 | 0.001 to 0.01 µM |
| COC(=O)Nc1cc2c(cn1)COc1c-2ccc(OCC(C)(N)CC(C)C)c1C#N (racemic) | < 0.001 µM |
